Data provenance: PubChem BioAssay (NCI)

- Test system: KM12 colon
- method: NCI-60 one-dose screen, 48 h (100 = growth as untreated, 0 = no growth, -100 = all killed)
- condition-details: 10 µM unless noted
About 83,000 compounds went through this panel and 20% of them were active in at least one assay; those are over-represented in the sample as a whole.
The threshold is 90%. Values of growth beneath it are tagged Satisfied; values meeting or exceeding it are tagged Not satisfied.

compound=CCN1C2=C(SC(=S)C1=C1SC(C(=O)OC)=C(C(=O)OC)S1)SC(=Nc1ccc(OC)cc1)C2=O class=Satisfied
compound=O=C(O)C(=O)O class="Not satisfied"
compound=COc1ccc(/C=C/C(=O)Nc2cccnc2Nc2ccc(F)cc2)cc1 class="Not satisfied"
compound=CC(=O)NCCSC(=O)C(=O)SCCNC(C)=O class="Not satisfied"
compound=O=C(/C=C/c1cccnc1)/C=C/c1cccnc1 class=Satisfied
compound=Cc1ccc(C=C2C(Cl)=C(Cl)C(Cl)=C2Cl)cc1 class=Satisfied
compound=Cc1ccccc1-c1cc(Cc2ccccc2O)c(=O)[nH]n1 class="Not satisfied"
compound=CCCCCCCCCCC[C@@H](C[C@H]1OC(=O)[C@H]1CCCCCC)OC(=O)[C@@H](CC(C)C)NC=O class=Satisfied
compound=c1cnc2ccc3ncccc3c2c1 class="Not satisfied"
compound=COc1ccc(/C=C2\NC(=S)NC2=O)cc1 class="Not satisfied"
compound=O=c1cc(-c2cccnc2)oc2c1ccc1ccccc12 class="Not satisfied"
compound=O=C(c1ccccc1)c1ccco1 class="Not satisfied"
compound=Cc1cc(N2CCOCC2)nc(N2CCOCC2)n1 class="Not satisfied"
compound=COc1cc(-c2cc(C(=O)Nc3nc4ccccc4s3)nc3cc(-c4ccccc4)nn23)cc(OC)c1OC class=Satisfied
compound="OC(c1cc(C(F)(F)F)nc2c(C(F)(F)F)cccc12)C1CCCCN1 (stereo not drawn)" class=Satisfied
compound="N#Cc1c2ccccc2c2n1-c1ccccc1OC(c1ccccc1)C2=O (stereo not drawn)" class=Satisfied
compound="COc1cc(C2CC(c3ccc(C)cc3)=NN2C(C)=O)ccc1Oc1ccnc2cc(Cl)ccc12 (stereo not drawn)" class=Satisfied
compound=CC(C)C/C(=N\NC(=O)c1ccncc1)c1cc(Cl)ccc1O class=Satisfied
compound=Oc1ccccc1C=Nc1ccccc1N=Cc1ccccc1O.[Cu+2] class=Satisfied
compound="CO[C@H]1/C=C/O[C@@]2(C)Oc3c(C)c(O)c4c(O)c(c(/C=N/N5C(C)CN(Cc6ccccc6)CC5C)c(O)c4c3C2=O)NC(=O)/C(C)=C\\C=C\\[C@H](C)[C@H](O)[C@@H](C)[C@@H](O)[C@@H](C)[C@H](OC(C)=O)[C@@H]1C (stereo partly drawn)" class=Satisfied
compound=Nc1cc(Cl)c(S(N)(=O)=O)cc1S(N)(=O)=O class="Not satisfied"
compound="CC(O)c1nc2c(c(=O)n(C)c(=O)n2C)n1C (stereo not drawn)" class="Not satisfied"
compound=COc1cc(/C=C2\COc3ccc(O)cc3C2=O)cc(OC)c1 class=Satisfied
compound=CC/C(=C\c1ccc(N(C)C)cc1)c1ccncc1 class=Satisfied
compound=O=C(COC(=O)[C@H](C[Se][Se]C[C@H](NC(=O)c1ccc(Br)cc1F)C(=O)OCC(=O)c1ccc(F)cc1)NC(=O)c1ccc(Br)cc1F)c1ccc(F)cc1 class=Satisfied
compound=CC(C)c1nc(N(C)S(C)(=O)=O)nc(-c2ccc(F)cc2)c1/C=C/[C@@H](O)C[C@@H](O)CC(=O)O class="Not satisfied"
compound=Cc1nn(-c2ccccc2)c2nc(Cl)c(/C=C/C(=O)c3ccccc3)c(-c3ccccc3)c12 class="Not satisfied"
compound="O=C1Nc2ccccc2C12Nc1cc(Cl)ccc1S2 (stereo not drawn)" class=Satisfied
compound=Cc1nn(-c2ccccc2)c2c1oc(=O)c1cc(Cl)ccc12 class="Not satisfied"
compound=Cc1ccc2c(c1)O/C(=C\c1ccc([N+](=O)[O-])o1)C2=O class=Satisfied
compound="COc1cc(/C=C/C(=O)c2ccc(F)cc2)ccc1OCCCCCOc1cc2c(cc1OC)C(=O)N1CCCC1C=N2 (stereo not drawn)" class=Satisfied
compound=Cn1cc(-c2csc(-c3c[nH]c4ncccc34)n2)c2cc(F)cnc21 class=Satisfied
compound=CCC(CC)NCCCCCNc1cc(OC)cc2cccnc12 class="Not satisfied"
compound=CC(=O)n1c2ccccc2c2ccccc21 class="Not satisfied"
compound="CCCCC1Nc2nc(SC)n(C)c(=O)c2CN(Cc2ccccc2)C1=O (stereo not drawn)" class="Not satisfied"
compound=CCOc1ccccc1C(=O)OCC(=O)Nc1cccc(S(=O)(=O)N(C)C)c1 class="Not satisfied"
compound=Cc1cc(C(C)(C)C)cc(C)c1CC1=NCCN1 class="Not satisfied"
compound="Clc1ccc(CCC(Cn2ccnc2)Sc2c(Cl)cccc2Cl)cc1 (stereo not drawn)" class=Satisfied
compound=COC(=O)CC1=C(C)/C(=C/c2[nH]c(-c3ccc[nH]3)cc2OC)N=C1C class=Satisfied
compound=CCOC(=O)c1c(C)nc(C)c(C(=O)OCC)c1-c1cccnc1 class="Not satisfied"
compound=COc1ccc2[nH]c(-c3ccccc3)cc2c1 class="Not satisfied"
compound=Cc1cccc(Cl)c1NC(=O)c1ccc2nc(NC(=O)NC3CC(C)(C)NC(C)(C)C3)sc2c1 class="Not satisfied"
